Cited source: the PolyMetriX glass transition set

± gives the standard deviation of the reports.
quantity: glass transition temperature

Sample records with glass transition temperature:
| molecule | observed |
| --- | --- |
| *c1ccc(Oc2ccc(C(=O)c3ccc(C(=O)c4ccc(Oc5ccc(-c6cc(*)[nH]n6)cc5)cc4)cc3)cc2)cc1 (repeat unit) | 235.00 °C |
| *c1ccc(C(=O)NNC(=O)c2ccc(C(=O)NNC(=O)c3ccc(C4(*)OC(=O)c5ccccc54)cc3)cc2)cc1 (repeat unit) | 237.00 °C |

// query Answer with the recorded glass transition temperature of *O[Si](*)(C)CCCCCCn1c2ccccc2c2ccccc21 (repeat unit) only.
// result -5.00 °C

// query Answer with the recorded glass transition temperature of *c1ccc(Oc2ccc(Oc3ccc(Oc4ccc(-c5cnc6cc(-c7ccc8nc(*)cnc8c7)ccc6n5)cc4)cc3)cc2)cc1 (repeat unit) only.
// result 133.00 °C

// query Answer with the recorded glass transition temperature of *CCCCNC(=O)C(=O)N* (repeat unit) only.
// result 120.00 °C

// query Answer with the recorded glass transition temperature of *CCN(CCOC(=O)c1cc(OCc2c(F)c(F)c(OC)c(F)c2F)cc(C(=O)O*)c1)c1ccc(/C=C/c2ccc(/C=C/C3=C(C#N)C(=C(C#N)C#N)OC3(c3ccccc3)C(F)(F)F)s2)cc1 (repeat unit) only.
// result 140.00 °C

// query Answer with the recorded glass transition temperature of *c1ccc(Oc2ccc(C(=O)c3cccc(C(=O)c4ccc(Oc5ccc(-n6c(=O)c7cc8c(=O)n(*)c(=O)c8cc7c6=O)cc5)cc4)c3)cc2)cc1 (repeat unit) only.
// result 247.00 °C

// query Answer with the recorded glass transition temperature of *Oc1ccc(C(c2ccc(OC(*)=O)cc2)C(C)C)cc1 (repeat unit) [Poly[1,1-(2-methyl propane) bis(4-phenyl)carbonate]] only.
// result 149 ± 0.6 °C

// query Answer with the recorded glass transition temperature of *C(=O)Nc1cc(NC(=O)c2ccc3c(c2)C(=O)N(c2cc(-c4nc5ccccc5s4)cc(N4C(=O)c5ccc(*)cc5C4=O)c2)C3=O)cc(-c2nc3ccccc3[nH]2)c1 (repeat unit) only.
// result 368.00 °C

// query Answer with the recorded glass transition temperature of *c1ccc(-c2ccc(N3C(=O)c4ccc(Oc5ccc(Sc6ccc(Oc7ccc8c(c7)C(=O)N(*)C8=O)cc6)cc5)cc4C3=O)cc2)cc1 (repeat unit) only.
// result 257.00 °C

// query Answer with the recorded glass transition temperature of *C1C2CCC(C2)C1* (repeat unit) only.
// result 240.00 °C

// query Answer with the recorded glass transition temperature of *CCCCCCOC(=O)C(CCCCCP(=O)(O)O)C(=O)OCCCCCCOc1ccc(-n2on2-c2ccc(O*)cc2)cc1 (repeat unit) only.
// result 17.00 °C

// query Answer with the recorded glass transition temperature of *CC(*)OC(=O)c1ccc(CC)cc1 (repeat unit) only.
// result 57.00 °C
